- TARGET_OR_TEST_SYSTEM: yDna2 (Saccharomyces cerevisiae)
- Construct: made in house
- Sequence (P38859 whole entry): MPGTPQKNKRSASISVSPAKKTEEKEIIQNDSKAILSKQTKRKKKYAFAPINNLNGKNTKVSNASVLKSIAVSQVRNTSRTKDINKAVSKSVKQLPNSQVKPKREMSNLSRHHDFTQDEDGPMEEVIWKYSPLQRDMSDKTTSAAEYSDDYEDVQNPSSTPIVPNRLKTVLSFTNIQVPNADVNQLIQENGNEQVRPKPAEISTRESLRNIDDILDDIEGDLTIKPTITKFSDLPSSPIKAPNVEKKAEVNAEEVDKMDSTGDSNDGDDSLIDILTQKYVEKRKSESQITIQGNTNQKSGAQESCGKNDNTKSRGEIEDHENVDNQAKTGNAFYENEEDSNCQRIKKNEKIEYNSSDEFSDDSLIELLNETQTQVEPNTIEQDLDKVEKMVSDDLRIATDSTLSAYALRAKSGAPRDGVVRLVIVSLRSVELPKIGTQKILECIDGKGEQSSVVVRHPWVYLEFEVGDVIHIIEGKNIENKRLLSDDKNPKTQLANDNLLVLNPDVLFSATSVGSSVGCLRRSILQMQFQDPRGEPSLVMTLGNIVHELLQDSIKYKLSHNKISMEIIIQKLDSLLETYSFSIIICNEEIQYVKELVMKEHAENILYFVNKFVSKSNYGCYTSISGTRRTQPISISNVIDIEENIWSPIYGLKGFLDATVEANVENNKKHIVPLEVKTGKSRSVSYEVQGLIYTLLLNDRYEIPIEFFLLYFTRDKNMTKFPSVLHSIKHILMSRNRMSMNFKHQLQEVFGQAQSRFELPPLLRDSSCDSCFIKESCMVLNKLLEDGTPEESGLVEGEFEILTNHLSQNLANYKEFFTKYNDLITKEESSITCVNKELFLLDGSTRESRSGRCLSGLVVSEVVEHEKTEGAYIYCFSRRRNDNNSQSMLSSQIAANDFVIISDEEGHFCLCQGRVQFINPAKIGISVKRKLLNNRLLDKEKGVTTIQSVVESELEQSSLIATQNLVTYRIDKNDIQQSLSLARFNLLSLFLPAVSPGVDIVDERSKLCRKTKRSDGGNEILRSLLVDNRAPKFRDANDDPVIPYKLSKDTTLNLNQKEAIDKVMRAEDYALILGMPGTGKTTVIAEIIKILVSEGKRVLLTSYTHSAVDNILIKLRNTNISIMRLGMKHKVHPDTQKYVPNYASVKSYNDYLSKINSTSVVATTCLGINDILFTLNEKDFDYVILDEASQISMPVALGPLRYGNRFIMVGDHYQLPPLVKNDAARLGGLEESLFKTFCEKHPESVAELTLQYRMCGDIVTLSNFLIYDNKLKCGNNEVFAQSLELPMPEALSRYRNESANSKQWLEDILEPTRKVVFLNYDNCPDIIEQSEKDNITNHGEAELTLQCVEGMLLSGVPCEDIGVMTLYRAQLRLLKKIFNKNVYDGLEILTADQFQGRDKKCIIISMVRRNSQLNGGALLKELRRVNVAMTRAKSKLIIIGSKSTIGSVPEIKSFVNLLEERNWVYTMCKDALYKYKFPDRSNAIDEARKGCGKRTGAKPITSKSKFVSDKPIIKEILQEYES
- ASSAY_INFO: High-throughput fluorescence nuclease assay with yDna2 (triply labeled (dT)30 ssDNA)
- Type: biochemical, yeast
- PARTICULARS: screen at fixed inhibitor concentration (33.33 μM), 0.09 nM Dna2
MEASURED_PARAMETER: % Inhibition yDna2 (%)
Please state the figure in %; there is no need to write the unit.

Input O=C(Nc1ccc(C2=NCCN2)cc1)c1ccc(Cl)c(C(=O)Nc2ccc(C3=NCCN3)cc2)c1 , output reported % Inhibition yDna2.
100

Return the recorded % Inhibition yDna2 value; entry: Cc1cc2c(c3oc(C4(C)OC4C4OC4C)cc(=O)c13)C(=O)c1c(O)c(C3CC(C)(N(C)C)C(O)C(C)O3)cc(C3CC(N(C)C)C(O)C(C)O3)c1C2=O (stereo not shown)
100

Provide % Inhibition yDna2 value for the following compound: CCN(CC)Cc1cc2[nH]c3c4ccc(Cl)cc4ncc3c2cc1OC
100

Report measured % Inhibition yDna2; entry is ClN=C1C=CC=CC1=NCl
51.4

State its % Inhibition yDna2 for this compound: COc1cccc2c1C(=O)c1c(O)c3c(c(O)c1C2=O)CC(O)(/C(C)=N/O)CC3OC1CC(N)C(O)C(C)O1 (stereo not shown)
100

Return reported % Inhibition yDna2. Input compound: COc1ccc2c(C)nc(NC3=NC(C)(C)CC(C)=N3)nc2c1
59.9

Note down % Inhibition yDna2 recorded for [Mo]
93.4

Report % Inhibition yDna2, nothing else, for this compound: Cc1cc(N)c2cc(NC(=O)/C=C/c3ccccc3Cl)ccc2n1
100

Note down % Inhibition yDna2 recorded for COc1cc(-c2ccc(N=Nc3ccc4c(S(=O)(=O)[O-])cc(S(=O)(=O)[O-])c(N)c4c3O)c(OC)c2)ccc1N=Nc1ccc2c(S(=O)(=O)[O-])cc(S(=O)(=O)[O-])c(N)c2c1O.[Na+].[Na+].[Na+].[Na+] [Chicago Sky blue 6B, reference compound]
69

In one line, give reported % Inhibition yDna2 of the entry CO[C@H]1C[C@@H]2\C=C(C)/C=C/C=C\C(=O)N[C@H](c3ccccc3)C/C=C/CC[C@H](O)CC(=O)C2=C1O .
71

Note down % Inhibition yDna2 recorded for Nc1ccc(Cn2ccc3c4c(N)nc(N)nc4ccc32)cc1
100

Supply measured % Inhibition yDna2 of c1ccc2c(NCCCCCCCCNc3c4ccccc4nc4ccccc34)c3ccccc3nc2c1 in your reply.
85

Return % Inhibition yDna2 (reported value) for this compound: CC(=O)[O-].Cc1c2cc[n+](CCN3CCCCC3)cc2c(C)c2c1[nH]c1ccc(O)cc12
100

Please give the documented % Inhibition yDna2 of Cl.O=C1c2cccc(NCCCNCCO)c2C(=O)c2cccc(NCCCNCCO)c21
99

Indicate its recorded % Inhibition yDna2; the compound in question is Cn1ccc(=Nc2ccc(NC(=O)c3ccc(N=c4ccn(C)c5ccc([N+](=O)[O-])cc45)cc3)cc2)cc1
94.8

Output % Inhibition yDna2 of NC(N)=NCCCS(=O)(=O)Nc1ccc(Nc2c3ccccc3nc3cc([N+](=O)[O-])ccc23)cc1
83.3

====

- TARGET_OR_TEST_SYSTEM: yDna2 (Saccharomyces cerevisiae)
- Construct: made in house
- ASSAY_INFO: High-throughput fluorescence nuclease assay with yDna2 (triply labeled (dT)30 ssDNA)
- Type: biochemical, yeast
- PARTICULARS: screen at fixed inhibitor concentration (33.33 μM), 0.09 nM Dna2; read-out: % Inhibition yDna2
Where a name gives a salt, the structure may show the parent alone.
Could you please report measured inhibition at 33.33 µM for the items listed next?
Express the result in % but write the number alone.

Could you please provide reported inhibition at 33.33 µM for CCCCC(CC)CNC(=N)NC(=N)NCCCCCCNC(=N)NC(=N)NCC(CC)CCCC (stereo not drawn) [Alexidine dihydrochloride, reference compound] ? Thanks!
63.5

Quickly give me recorded inhibition at 33.33 µM for Cc1cc(NCCCCCCCNc2cc(C)nc3cc(N)ccc23)c2ccc(N)cc2n1
74.4

Name the recorded inhibition at 33.33 µM of the compound listed here: COc1ccc2c(NCCCCCCNc3c4ccccc4nc4cc(OC)ccc34)c3ccccc3nc2c1
100

Please give the documented inhibition at 33.33 µM of CCN(CC)CCCC(C)Nc1c2ccc(Cl)cc2nc2ccc(OC)cc12 (stereo not drawn) [Quinacrine dihydrochloride, reference compound]
67.8

# return recorded inhibition at 33.33 µM for entry CN1CCN(c2ccc3nc(-c4c(N)c5c(F)cccc5[nH]c4=O)[nH]c3c2)CC1 [(Dovitinib) CHIR258, Dovitinib, reference compound]
54

Using the record for O=C1c2c(O)ccc(O)c2C(=O)c2c(NCCNCCO)ccc(NCCNCCO)c21 [Mitoxantrone dihydrochloride, reference compound] , state its measured inhibition at 33.33 µM.
100

Give inhibition at 33.33 µM for Cc1cc(N)c2ccccc2[n+]1CCCCCCCCCC[n+]1c(C)cc(N)c2ccccc21
55.4

Return reported inhibition at 33.33 µM. Input compound: Cc1cc2nc3ccc(N(C)C)cc3[s+]c2cc1N
100

Supply inhibition at 33.33 µM value. Item: COc1cccc2c1C(=O)c1c(O)c3c(c(O)c1C2=O)C[C@@](O)(C(=O)CO)C[C@@H]3O[C@H]1C[C@H](N)[C@H](O)[C@H](C)O1 [Doxorubicin hydrochloride, reference compound]
100
